Test system: P. falciparum female gametocytes
Experiment: P. falciparum Dual Gamete Formation Assay (PfDGFA), female readout (Pfs25-positive female gametes)
Assay type: cell-based, Plasmodium falciparum NF54
Conditions: PfDGFA at 2µM, 24h preincubation with gametocytes prior to induction of gametogenesis; replicate R3
Experimental: […] The Pf DGFA was performed as described in Delves et al. 2016 [17]. […] Exflagellation was recorded by capturing 10 frames over 1 s under brightfield illumination using a x4 objective with a 1.5x zoom (effectively x6) attached to an automated Nikon Ti fluorescence microscope. […] The plates were then returned to the microscope and female gametes imaged at x6 using fluorescence microscopy. […]
condition met means recorded % inhibition female (individual replicates) R3 is -10% or above; condition not met means it is below -10%.

Dear colleague, could you confirm whether "Nc1nc(N)c2c(ccc3c2ccn3Cc2ccccn2)n1" has % inhibition female (individual replicates) R3 at or above -10%?
condition met

Dear colleague, could you confirm whether "Cc1c(OC(C)C)nc2ccccc2c1C(=O)N[C@H](c1cccc(F)c1)C1CC1" has % inhibition female (individual replicates) R3 at or above -10%?
condition not met

Dear colleague, could you confirm whether "CNCCNCc1ccc(-c2cccc(-c3nc4cc(F)ccc4[nH]3)c2)cc1.O=C(O)C(F)(F)F" has % inhibition female (individual replicates) R3 at or above -10%?
condition met
